System: biotinyl-Ile-oxazolone
Test: self-aminoacylation, catalytic enhancement (BIO) (fold over background); higher = more active; k-Seq, kA / k0A0; sequences stand for … in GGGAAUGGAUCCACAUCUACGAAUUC…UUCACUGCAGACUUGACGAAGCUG
This sample holds only a part of the variants without activity.
This section presents sequences with their documented self-aminoacylation values.
# answer = number (no unit)

Record excerpt, results attached:
{"columns": ["residueCodes", "self-aminoacylation"],
 "data": [
  ["AUUAGCCUGGUCAUCGAGAGA [Fam2.1 aminoacylation ribozyme variant]", 1.63],
  ["AUUCACCUUGGUCCUCGGGUG [Fam2.2 aminoacylation ribozyme variant]", 3.53],
  ["AUUCCCUUGGUCAUCGAGUGA [Fam2.1 aminoacylation ribozyme variant]", 6.22],
  ["CUACUUCAAACAAGCGGUCUA [Fam1A.1 aminoacylation ribozyme variant]", 0.936],
  ["UUUACCCUGGUCAUCGAAUGA [Fam2.1 aminoacylation ribozyme variant]", 1.31]
]}

Problem: What value of self-aminoacylation has been recorded for this entry: CCACACUUCAUGGAAUCGGUC [Fam1B.1 aminoacylation ribozyme variant]
Solution: 0.858

Problem: What value of self-aminoacylation has been recorded for this entry: AUUACCCUGGUCAUAGAGUGG [Fam2.1 aminoacylation ribozyme variant]
Solution: 1.37

Problem: What value of self-aminoacylation has been recorded for this entry: CAACUUCCAACAAUCGGUCUG [Fam1A.1 aminoacylation ribozyme variant]
Solution: 1.13

Problem: What value of self-aminoacylation has been recorded for this entry: AUUACCCUGAUCAUGGAGUGA [Fam2.1 aminoacylation ribozyme variant]
Solution: 4.86

Problem: What value of self-aminoacylation has been recorded for this entry: AAGUUUGCGAAUAGUUGCAAG [Fam3.1 aminoacylation ribozyme variant]
Solution: 0.915

----------
This section presents sequences with their documented self-aminoacylation values.
Test system: biotinyl-Trp-oxazolone
Experiment: self-aminoacylation, catalytic enhancement (BWO) (fold over background); higher = more active; k-Seq, kA / k0A0; sequences stand for … in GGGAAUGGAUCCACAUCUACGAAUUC…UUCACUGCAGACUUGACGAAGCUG
This sample holds only a part of the variants without activity.

Record excerpt, results attached:
{"columns": ["residueCodes", "measValue"],
 "data": [
  ["CUACUUCAUACAAUCGAUCUG [Fam1A.1 aminoacylation ribozyme variant]", 0.601],
  ["AAGUUUGCUAGUAAUCGCAAG [Fam3.1 aminoacylation ribozyme variant]", 0.849],
  ["CCACACUUCAAGCAAUCGACC [Fam1B.1 aminoacylation ribozyme variant]", 0.447]
]}

Problem: What value of self-aminoacylation has been recorded for this entry: CUACUACAAACAAUCAGUCUG [Fam1A.1 aminoacylation ribozyme variant]
Solution: 0.554

----------
This section presents sequences with their documented self-aminoacylation values.
Test system: biotinyl-Met-oxazolone
Assay: self-aminoacylation, catalytic enhancement (BMO) (fold over background); higher = more active; k-Seq, kA / k0A0; sequences stand for … in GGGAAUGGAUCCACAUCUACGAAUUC…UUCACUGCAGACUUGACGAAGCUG
Variants at the floor of the assay were thinned out.
# answer = number (no unit)

{"columns": ["residueCodes", "measValue"],
 "data": [
  ["AUUUACCUAGGUCAUCGUGUG [Fam2.2 aminoacylation ribozyme variant]", 0.995],
  ["CCACGGUUCAAGCAAUCGGUC [Fam1B.1 aminoacylation ribozyme variant]", 1.02],
  ["CUUACCCUGGUGAUCGAGUGA [Fam2.1 aminoacylation ribozyme variant]", 4.51],
  ["AUUACACGGGUCAUCGAGUGA [Fam2.1 aminoacylation ribozyme variant]", 4.62],
  ["AUUCACCUAGGUCAUAGAGUG [Fam2.2 aminoacylation ribozyme variant]", 2.98]
]}

Problem: What value of self-aminoacylation has been recorded for this entry: AAUACCCUGGUCAACGAGUGA [Fam2.1 aminoacylation ribozyme variant]
Solution: 4.19

Problem: What value of self-aminoacylation has been recorded for this entry: AUUACGCUGGUCAUCGUGUGA [Fam2.1 aminoacylation ribozyme variant]
Solution: 2.48

Problem: What value of self-aminoacylation has been recorded for this entry: CUACUUCAAACAAUAGGUCAG [Fam1A.1 aminoacylation ribozyme variant]
Solution: 0.602

Problem: What value of self-aminoacylation has been recorded for this entry: AUGUUUGCUAAUAGUCGCAAC [Fam3.1 aminoacylation ribozyme variant]
Solution: 1.05

----------
Tested on: biotinyl-Leu-oxazolone
Assay: self-aminoacylation, catalytic enhancement (BLO) (fold over background); higher = more active; k-Seq, kA / k0A0; sequences stand for … in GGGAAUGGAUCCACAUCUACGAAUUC…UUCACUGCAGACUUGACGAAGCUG
Variants at the floor of the assay were thinned out.
Lab note: compare self-aminoacylation against 4. Equal or greater, write true (1). Smaller, write false (0).

{"columns": ["residueCodes", "measuredOn", "classLabel"],
 "data": [
  ["CUUACCCUGGUCAUCGAGUCA [Fam2.1 aminoacylation ribozyme variant]", "biotinyl-Leu-oxazolone", "false (0)"],
  ["AUUCACAUACGUCAUCGGGUG [Fam2.2 aminoacylation ribozyme variant]", "biotinyl-Leu-oxazolone", "true (1)"],
  ["CCACUUCAAACAAUCGGUCAG [Fam1A.1 aminoacylation ribozyme variant]", "biotinyl-Leu-oxazolone", "false (0)"],
  ["CUACUUCAAACCACCGGUCUG [Fam1A.1 aminoacylation ribozyme variant]", "biotinyl-Leu-oxazolone", "false (0)"],
  ["AUGACUCUGGUCAUCGAGUGA [Fam2.1 aminoacylation ribozyme variant]", "biotinyl-Leu-oxazolone", "true (1)"]
]}

Problem: Entry AUUCACCUAGUUCACCGGGUG [Fam2.2 aminoacylation ribozyme variant] : is its self-aminoacylation no less than 4?
Solution: false (0)

Problem: Entry AUUCUCCUAGGUCAUCGGGGG [Fam2.2 aminoacylation ribozyme variant] : is its self-aminoacylation no less than 4?
Solution: false (0)

Problem: Entry AUUACCCUUGUCAUCAAGUGA [Fam2.1 aminoacylation ribozyme variant] : is its self-aminoacylation no less than 4?
Solution: true (1)

Problem: Entry CCACACUUCAAGCAAGCGGUG [Fam1B.1 aminoacylation ribozyme variant] : is its self-aminoacylation no less than 4?
Solution: false (0)

----------
This section presents sequences with their documented self-aminoacylation values.
System: biotinyl-Trp-oxazolone
Test: self-aminoacylation, catalytic enhancement (BWO) (fold over background); higher = more active; k-Seq, kA / k0A0; sequences stand for … in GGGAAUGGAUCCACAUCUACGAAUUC…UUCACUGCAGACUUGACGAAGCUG
Fewer inactive variants are shown than the library holds.
# answer = number (no unit)

{"columns": ["residueCodes", "measValue"],
 "data": [
  ["AUUACCCUGGCCAUCGAAUGA [Fam2.1 aminoacylation ribozyme variant]", 0.331]
]}

Problem: What value of self-aminoacylation has been recorded for this entry: CCACACUUCAAGUAAUCGGUA [Fam1B.1 aminoacylation ribozyme variant]
Solution: 0.708

Problem: What value of self-aminoacylation has been recorded for this entry: CCAUACUUCAAGCGAUCGGUC [Fam1B.1 aminoacylation ribozyme variant]
Solution: 0.926

Problem: What value of self-aminoacylation has been recorded for this entry: AUUAGCCUGGUCAUCGACUGA [Fam2.1 aminoacylation ribozyme variant]
Solution: 0.565

Problem: What value of self-aminoacylation has been recorded for this entry: AAGUUUGCUUAUAGUCGCGAG [Fam3.1 aminoacylation ribozyme variant]
Solution: 1.53

Problem: What value of self-aminoacylation has been recorded for this entry: AUUACCCUGAUUAUCGAGUGA [Fam2.1 aminoacylation ribozyme variant]
Solution: 22

Problem: What value of self-aminoacylation has been recorded for this entry: AAGUUUGCUAAUAGGCGCAAU [Fam3.1 aminoacylation ribozyme variant]
Solution: 0.968

Problem: What value of self-aminoacylation has been recorded for this entry: AAGUCUGCUAAUAGUCGCUAG [Fam3.1 aminoacylation ribozyme variant]
Solution: 1.81

Problem: What value of self-aminoacylation has been recorded for this entry: CUACUUCUAACAAUGGGUCUG [Fam1A.1 aminoacylation ribozyme variant]
Solution: 0.566

----------
Tested on: biotinyl-Phe-oxazolone
Assay: self-aminoacylation, catalytic enhancement (BFO) (fold over background); higher = more active; k-Seq, kA / k0A0; sequences stand for … in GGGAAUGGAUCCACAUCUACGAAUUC…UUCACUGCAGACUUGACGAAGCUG
This sample holds only a part of the variants without activity.
experimentalReadout: self-aminoacylation
# answer = number (no unit)

{"columns": ["residueCodes", "experimentalReadout", "measValue"],
 "data": [
  ["AUUAGCCUGGUAAUCGAGUGA [Fam2.1 aminoacylation ribozyme variant]", "self-aminoacylation", 75.9],
  ["AAAUUUGCAAAUAGUCGCAAG [Fam3.1 aminoacylation ribozyme variant]", "self-aminoacylation", 2.27],
  ["AAUCACCUAGGGCAUCGGGUG [Fam2.2 aminoacylation ribozyme variant]", "self-aminoacylation", 28],
  ["CUACUUCAAAGCAUCGGUCUG [Fam1A.1 aminoacylation ribozyme variant]", "self-aminoacylation", 0.786],
  ["CUACUUCAAACAAUCGUUGUG [Fam1A.1 aminoacylation ribozyme variant]", "self-aminoacylation", 1.69]
]}

Problem: What value of self-aminoacylation has been recorded for this entry: AUUGCCCUGGUCAUCGAGUGU [Fam2.1 aminoacylation ribozyme variant]
Solution: 448

Problem: What value of self-aminoacylation has been recorded for this entry: CCUCACUUCAAGCAAUCGGCC [Fam1B.1 aminoacylation ribozyme variant]
Solution: 5.49

Problem: What value of self-aminoacylation has been recorded for this entry: AAUACCCUGGACAUCGAGUGA [Fam2.1 aminoacylation ribozyme variant]
Solution: 10.5

Problem: What value of self-aminoacylation has been recorded for this entry: CUUCUUCACACAAUCGGUCUG [Fam1A.1 aminoacylation ribozyme variant]
Solution: 0.889

Where do these numbers come from? They come from the supplement of paper PMC9233669.
